TARGET_DESC: Phosphatidylinositol 5-phosphate 4-kinase type-2 gamma (Homo sapiens, UniProt Q8TBX8)
Sequence (Q8TBX8 whole entry): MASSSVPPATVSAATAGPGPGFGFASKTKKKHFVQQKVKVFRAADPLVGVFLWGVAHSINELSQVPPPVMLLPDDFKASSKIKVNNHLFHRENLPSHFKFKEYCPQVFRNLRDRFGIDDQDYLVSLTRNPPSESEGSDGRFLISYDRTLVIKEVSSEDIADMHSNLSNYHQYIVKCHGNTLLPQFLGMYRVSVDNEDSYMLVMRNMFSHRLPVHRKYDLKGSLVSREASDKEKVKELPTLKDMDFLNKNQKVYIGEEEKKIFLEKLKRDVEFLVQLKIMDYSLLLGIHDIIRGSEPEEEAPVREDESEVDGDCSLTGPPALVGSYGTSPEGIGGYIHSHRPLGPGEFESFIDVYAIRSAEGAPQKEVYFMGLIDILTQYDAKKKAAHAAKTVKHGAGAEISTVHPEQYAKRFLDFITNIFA
PROPERTY: pKd
Field pKd (float): negative decimal logarithm of the concentration in molar.

Query: Fill in the recorded pKd for this compound, with Phosphatidylinositol 5-phosphate 4-kinase type-2 gamma (Homo sapiens, UniProt Q8TBX8) as test system: "COc1cc(S(C)(=O)=O)ccc1Nc1nc2ccc(-c3ccc(NC(=O)[C@H](C)c4ccc(F)cc4)cc3)cn2n1"
Reply: 6.55

----------
System: Caov-3 cell line
EXPERIMENT_DESCRIPTION: Antiproliferative activity against human Caov-3 cell line assessed as cell growth inhibition incubated for 96 hrs by crystal violet staining
EXPERIMENTAL_SETUP: Caov-3, 96 h
PROPERTY: IC50
Note: state the figure and append the unit.

Query: # lookup: IC50 of "COc1ccc(Oc2cc(NCCC(F)(F)F)c3ncc(-c4ccc(C(=O)NC5CC5)c(C)c4)n3n2)c(F)c1F"
Reply: 36 nM

Query: So what does the record say about IC50 for "COc1cc(S(C)(=O)=O)ccc1Nc1nc2ccc(-c3ccc(NC(=O)[C@H](C)c4ccc(F)cc4)cc3)cn2n1" ?
Reply: 98 nM

----------
TARGET_DESC: Mitogen-activated protein kinase 9 (Homo sapiens, UniProt P45984)
Sequence (P45984 whole entry): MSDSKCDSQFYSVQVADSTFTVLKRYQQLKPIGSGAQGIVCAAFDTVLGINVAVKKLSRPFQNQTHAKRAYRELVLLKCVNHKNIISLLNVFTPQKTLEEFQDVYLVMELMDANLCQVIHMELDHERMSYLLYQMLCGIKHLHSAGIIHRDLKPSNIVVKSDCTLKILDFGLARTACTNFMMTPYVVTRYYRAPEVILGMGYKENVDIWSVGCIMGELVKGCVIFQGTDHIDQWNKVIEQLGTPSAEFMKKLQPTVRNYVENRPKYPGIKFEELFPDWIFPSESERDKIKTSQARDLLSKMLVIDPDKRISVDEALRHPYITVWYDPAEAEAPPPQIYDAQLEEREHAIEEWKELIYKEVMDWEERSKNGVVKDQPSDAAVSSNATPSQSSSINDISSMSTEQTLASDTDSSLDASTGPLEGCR
EXPERIMENT_DESCRIPTION: Binding affinity to JNK2 (unknown origin) assessed as dissociation constant
PROPERTY: Kd

Query: May I ask what Kd has been recorded for "COc1cc(S(C)(=O)=O)ccc1Nc1nc2ccc(-c3ccc(NC(=O)[C@H](C)c4ccc(F)cc4)cc3)cn2n1" ?
Reply: 160 nM

----------
EXPERIMENT_DESCRIPTION: Half life in male Wistar rat plasma at 0.5 mg/kg, iv measured after 24 hrs by LC/-MS/MS analysis
Type: ADME, organism-based
PROPERTY: half-life

Query: Can you look up the measured half-life of "COc1cc(S(C)(=O)=O)ccc1Nc1nc2ccc(-c3ccc(NC(=O)[C@H](C)c4ccc(F)cc4)cc3)cn2n1" for me?
Reply: 14 h

Query: Find the recorded half-life belonging to "COc1ccc(Oc2cc(NCCC(F)(F)F)c3ncc(-c4ccc(C(=O)NC5CC5)c(C)c4)n3n2)c(F)c1F" and report it.
Reply: 7.8 h

----------
Tested on: NCI-H292
EXPERIMENT_DESCRIPTION: Antiproliferative activity against human NCI-H292 cells assessed as cell growth inhibition incubated for 96 hrs by crystal violet staining
EXPERIMENTAL_SETUP: NCI-H292, 96 h
PROPERTY: IC50 (nM)
Give just the numeric value; nM need not be written.

Query: Tell me the measured IC50 of COc1cc(S(C)(=O)=O)ccc1Nc1nc2ccc(-c3ccc(NC(=O)[C@H](C)c4ccc(F)cc4)cc3)cn2n1 [BAY-1161909] , please.
Reply: 190

----------
EXPERIMENT_DESCRIPTION: Cmax in male Wistar rat plasma at 0.5 mg/kg, po measured after 24 hrs by LC/-MS/MS analysis
Format: ADME, organism-based
Assign Cmax to each entry below.
Provide the reading as a plain figure in ng/mL.

Query: Given the entry COc1cc(S(C)(=O)=O)ccc1Nc1nc2ccc(-c3ccc(NC(=O)[C@H](C)c4ccc(F)cc4)cc3)cn2n1 [BAY-1161909] , report its measured Cmax.
Reply: 110

Query: What does the data say about its Cmax? Entry: COc1ccc(Oc2cc(NCCC(F)(F)F)c3ncc(-c4ccc(C(=O)NC5CC5)c(C)c4)n3n2)c(F)c1F [BAY-1217389]
Reply: 177

----------
TARGET_DESC: Mitogen-activated protein kinase kinase kinase kinase 1 (Homo sapiens)
Sequence (Q92918 whole entry): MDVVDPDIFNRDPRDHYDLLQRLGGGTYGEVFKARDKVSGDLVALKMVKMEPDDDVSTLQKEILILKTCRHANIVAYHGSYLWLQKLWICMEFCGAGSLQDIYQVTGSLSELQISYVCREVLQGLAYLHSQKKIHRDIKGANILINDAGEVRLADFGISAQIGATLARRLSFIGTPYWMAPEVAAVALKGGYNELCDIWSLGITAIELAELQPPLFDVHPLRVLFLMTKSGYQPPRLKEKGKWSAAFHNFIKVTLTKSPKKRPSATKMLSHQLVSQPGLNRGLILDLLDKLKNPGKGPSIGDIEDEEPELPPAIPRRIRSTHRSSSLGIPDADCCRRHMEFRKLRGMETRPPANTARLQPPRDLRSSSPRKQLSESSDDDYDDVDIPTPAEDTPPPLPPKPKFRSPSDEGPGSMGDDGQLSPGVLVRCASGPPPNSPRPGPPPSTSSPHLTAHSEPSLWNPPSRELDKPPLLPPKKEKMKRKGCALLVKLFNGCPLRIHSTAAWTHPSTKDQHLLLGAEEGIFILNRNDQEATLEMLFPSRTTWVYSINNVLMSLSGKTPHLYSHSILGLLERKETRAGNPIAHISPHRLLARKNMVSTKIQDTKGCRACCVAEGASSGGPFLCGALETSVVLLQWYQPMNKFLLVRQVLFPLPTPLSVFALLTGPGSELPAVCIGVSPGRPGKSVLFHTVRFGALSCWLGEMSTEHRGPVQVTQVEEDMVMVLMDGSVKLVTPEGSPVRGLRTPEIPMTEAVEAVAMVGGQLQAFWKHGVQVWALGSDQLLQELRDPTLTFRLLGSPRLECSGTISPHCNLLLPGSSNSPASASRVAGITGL
EXPERIMENT_DESCRIPTION: Binding affinity to HPK1 (unknown origin) assessed as dissociation constant
PROPERTY: Kd (µM)
Answer format: numeric, µM implied, no suffix.

Query: Recorded Kd of COc1cc(S(C)(=O)=O)ccc1Nc1nc2ccc(-c3ccc(NC(=O)[C@H](C)c4ccc(F)cc4)cc3)cn2n1 [BAY-1161909] , please.
Reply: 40

----------
Tested on: HT-1376
EXPERIMENT_DESCRIPTION: Antiproliferative activity against human HT-1376 cells assessed as cell growth inhibition incubated for 96 hrs by MTS assay
Assay type: functional, cell-based
EXPERIMENTAL_SETUP: HT-1376, 96 h
PROPERTY: pIC50
Scale for pIC50: -log10 of concentration given in mol/L; no unit attached.

Query: // pIC50 lookup, key: "COc1cc(S(C)(=O)=O)ccc1Nc1nc2ccc(-c3ccc(NC(=O)[C@H](C)c4ccc(F)cc4)cc3)cn2n1"
Reply: 5.52

----------
TARGET_DESC: Mitogen-activated protein kinase 8 (Homo sapiens, UniProt P45983)
Sequence (P45983 whole entry): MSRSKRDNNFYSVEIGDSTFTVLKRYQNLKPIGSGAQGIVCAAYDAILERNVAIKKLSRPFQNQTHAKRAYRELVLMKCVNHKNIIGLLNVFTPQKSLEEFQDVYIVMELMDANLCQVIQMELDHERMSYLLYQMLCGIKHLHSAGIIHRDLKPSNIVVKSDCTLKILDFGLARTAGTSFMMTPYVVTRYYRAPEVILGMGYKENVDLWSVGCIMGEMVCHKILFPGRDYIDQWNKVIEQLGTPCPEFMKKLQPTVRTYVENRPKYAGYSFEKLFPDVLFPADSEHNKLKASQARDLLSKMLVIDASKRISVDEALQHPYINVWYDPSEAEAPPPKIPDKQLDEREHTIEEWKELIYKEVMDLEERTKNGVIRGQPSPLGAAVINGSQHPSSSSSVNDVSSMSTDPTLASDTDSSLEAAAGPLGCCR
EXPERIMENT_DESCRIPTION: Binding affinity to JNK1 (unknown origin) assessed as dissociation constant
PROPERTY: Kd
Record the result as a number with its unit.

Query: Name the reported Kd value associated with the compound "COc1cc(S(C)(=O)=O)ccc1Nc1nc2ccc(-c3ccc(NC(=O)[C@H](C)c4ccc(F)cc4)cc3)cn2n1"
Reply: 240 nM

----------
Test system: Calu-6
EXPERIMENT_DESCRIPTION: Antiproliferative activity against human Calu-6 cells assessed as cell growth inhibition incubated for 96 hrs by crystal violet staining
EXPERIMENTAL_SETUP: Calu-6, 96 h
PROPERTY: IC50

Query: Observed IC50 on Calu-6 for "COc1cc(S(C)(=O)=O)ccc1Nc1nc2ccc(-c3ccc(NC(=O)[C@H](C)c4ccc(F)cc4)cc3)cn2n1" , please.
Reply: > 3000 nM

----------
TARGET_DESC: Mitogen-activated protein kinase 10 (Homo sapiens, UniProt P53779)
Sequence (P53779 whole entry): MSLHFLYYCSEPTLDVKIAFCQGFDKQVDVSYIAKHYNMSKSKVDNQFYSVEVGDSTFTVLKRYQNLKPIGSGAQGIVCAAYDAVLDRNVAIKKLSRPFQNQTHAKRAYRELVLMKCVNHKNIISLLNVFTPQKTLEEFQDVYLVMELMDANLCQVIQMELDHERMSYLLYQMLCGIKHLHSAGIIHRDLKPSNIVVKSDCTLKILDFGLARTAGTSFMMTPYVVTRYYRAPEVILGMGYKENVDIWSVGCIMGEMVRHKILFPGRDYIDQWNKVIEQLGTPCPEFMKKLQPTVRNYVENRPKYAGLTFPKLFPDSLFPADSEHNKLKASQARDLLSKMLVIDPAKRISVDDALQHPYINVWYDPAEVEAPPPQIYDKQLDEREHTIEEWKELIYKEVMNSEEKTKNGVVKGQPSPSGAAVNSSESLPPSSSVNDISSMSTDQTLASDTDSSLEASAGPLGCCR
EXPERIMENT_DESCRIPTION: Binding affinity to JNK3 (unknown origin) assessed as dissociation constant
PROPERTY: Kd (nM)
API: value field is a number in nM; no unit string.

Query: Name the recorded Kd for "COc1cc(S(C)(=O)=O)ccc1Nc1nc2ccc(-c3ccc(NC(=O)[C@H](C)c4ccc(F)cc4)cc3)cn2n1" .
Reply: 96

----------
EXPERIMENT_DESCRIPTION: Oral bioavailability in male Wistar rat plasma at 0.5 mg/kg measured after 24 hrs by LC/-MS/MS analysis
Format: ADME, organism-based
PROPERTY: bioavailability

Query: # input compound: "COc1ccc(Oc2cc(NCCC(F)(F)F)c3ncc(-c4ccc(C(=O)NC5CC5)c(C)c4)n3n2)c(F)c1F" ; wanted: its bioavailability
Reply: 73%

Query: // bioavailability lookup, key: "COc1cc(S(C)(=O)=O)ccc1Nc1nc2ccc(-c3ccc(NC(=O)[C@H](C)c4ccc(F)cc4)cc3)cn2n1"
Reply: 49%

----------
Tested on: U2OS
EXPERIMENT_DESCRIPTION: Antiproliferative activity against human U2OS cells assessed as cell growth inhibition incubated for 96 hrs by MTS assay
Assay type: functional, cell-based
PROPERTY: IC50 (nM)
Expressed in nM, but write only the number.

Query: Lab note: need IC50 with U2OS for entry "COc1cc(S(C)(=O)=O)ccc1Nc1nc2ccc(-c3ccc(NC(=O)[C@H](C)c4ccc(F)cc4)cc3)cn2n1" , please look it up.
Reply: 550

----------
EXPERIMENT_DESCRIPTION: Antiproliferative activity against human HBL1 cells assessed as cell growth inhibition incubated for 96 hrs by MTS assay
Type: functional, cell-based
EXPERIMENTAL_SETUP: HBL1, 96 h
PROPERTY: pIC50
Just so you know, pIC50 here is -log10 of the concentration in molar units; reply with that number alone.

Query: Which pIC50 is listed for "COc1cc(S(C)(=O)=O)ccc1Nc1nc2ccc(-c3ccc(NC(=O)[C@H](C)c4ccc(F)cc4)cc3)cn2n1" ?
Reply: 6.96

----------
System: SAOS-2
EXPERIMENT_DESCRIPTION: Antiproliferative activity against human SAOS-2 cells assessed as cell growth inhibition incubated for 96 hrs by MTS assay
Format: functional, cell-based
EXPERIMENTAL_SETUP: SAOS-2, 96 h
PROPERTY: pIC50
Notebook: values listed as pIC50 are -log10 of the concentration (mol/L).

Query: Consider the compound "COc1cc(S(C)(=O)=O)ccc1Nc1nc2ccc(-c3ccc(NC(=O)[C@H](C)c4ccc(F)cc4)cc3)cn2n1" and give its measured pIC50.
Reply: 6.28

----------
EXPERIMENT_DESCRIPTION: Antiproliferative activity against human OUMS-23 cells assessed as cell growth inhibition incubated for 96 hrs by crystal violet staining
EXPERIMENTAL_SETUP: OUMS-23, 96 h
PROPERTY: IC50

Query: Fill blank: measured IC50 of the compound "COc1cc(S(C)(=O)=O)ccc1Nc1nc2ccc(-c3ccc(NC(=O)[C@H](C)c4ccc(F)cc4)cc3)cn2n1" is ____.
Reply: > 3000 nM

----------
Test system: NCI-H661
EXPERIMENT_DESCRIPTION: Antiproliferative activity against human NCI-H661 cells assessed as cell growth inhibition incubated for 96 hrs by MTS assay
Assay type: functional, cell-based
EXPERIMENTAL_SETUP: NCI-H661, 96 h
PROPERTY: IC50 (nM)
Your answer is read as nM, so omit the unit and give the number.

Query: Requested field: IC50. Item: "COc1cc(S(C)(=O)=O)ccc1Nc1nc2ccc(-c3ccc(NC(=O)[C@H](C)c4ccc(F)cc4)cc3)cn2n1"
Reply: 260
